Origin of values: ChEMBL document CHEMBL1914356

System: B16-F10
Test: Induction of apoptosis in mouse B16F10 cells assessed as total apoptosis at 1 uM after 24 hrs using annexin V-FITC/propidium iodide staining by flow cytometry
Assay type: functional
Each item that follows carries a reported Activity.
Provide only the numeric value, understood in %.

[[record]]
compound = "CC1(C)CC[C@]2(C(=O)OCc3ccccc3)CC[C@]3(C)C(=CC[C@@H]4[C@@]5(C)C[C@@H](O)[C@H](O)C(C)(C)[C@@H]5CC[C@]43C)[C@@H]2C1 [BENZYL MASLINATE]"
measured_metric = "Activity"
obs_value = 87.5


Quick note, Activity for CC1(C)CC[C@]2(C#N)CC[C@]3(C)C(=CC[C@@H]4[C@@]5(C)C[C@@H](O)[C@H](O)C(C)(C)[C@@H]5CC[C@]43C)[C@@H]2C1 landed at 78.75

Kindly note the recorded Activity for CC(=O)O[C@@H]1C[C@]2(C)[C@H]3CC=C4[C@@H]5CC(C)(C)CC[C@]5(C#N)CC[C@@]4(C)[C@]3(C)CC[C@H]2C(C)(C)[C@H]1OC(C)=O , which is 68.62

Quick note, Activity for CC1(C)CC[C@]2(C(=O)[O-])CC[C@]3(C)C(=CC[C@@H]4[C@@]5(C)C[C@@H](O)[C@H](O)C(C)(C)[C@@H]5CC[C@]43C)[C@@H]2C1.[Na+] [SODIUM MASLINATE] landed at 56.67
